Each recorded value in this set is attributed to the supplement of paper PMC6757056.

B1: library; a variant is named by its letters at N, in order (parent)
chain: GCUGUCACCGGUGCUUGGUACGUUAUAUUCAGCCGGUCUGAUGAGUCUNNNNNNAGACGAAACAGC

- Variants of: B1
- METHOD NOTES: normalized RNA/DNA level without ligand (relative to sTRSVctl = 100) (log10 (% of sTRSVctl)); HEK293T overexpressing SLC46A1; higher = less ribozyme self-cleavage, higher mRNA level
- PROTOCOL CONDITIONS: without (6R,S)-folinic acid; ligand present: no
Below, each entry is listed alongside its reported normalized RNA/DNA level without ligand (log10).
Answer with a bare number; do not write a unit.

query: # input variant: "CCCAAU" ; wanted: its normalized RNA/DNA level without ligand (log10)
result: 2.02

query: Could you do the same for "AAGAAU" , please?
result: 1.95

query: Could you do the same for "CCGCAG" , please?
result: 1.97

query: Could you do the same for "CAGGGA" , please?
result: 1.96

query: Could you do the same for "CCUUUA" , please?
result: 2.02

query: Could you do the same for "AAGCGC" , please?
result: 2.03

query: Could you do the same for "UGCGGC" , please?
result: 2

query: Could you do the same for "CCGGGG" , please?
result: 1.98
